# System: T1, Sumo-SiwR (Mycobacterium smegmatis, UniProt A0QS56 1-320)
# T1 sequence: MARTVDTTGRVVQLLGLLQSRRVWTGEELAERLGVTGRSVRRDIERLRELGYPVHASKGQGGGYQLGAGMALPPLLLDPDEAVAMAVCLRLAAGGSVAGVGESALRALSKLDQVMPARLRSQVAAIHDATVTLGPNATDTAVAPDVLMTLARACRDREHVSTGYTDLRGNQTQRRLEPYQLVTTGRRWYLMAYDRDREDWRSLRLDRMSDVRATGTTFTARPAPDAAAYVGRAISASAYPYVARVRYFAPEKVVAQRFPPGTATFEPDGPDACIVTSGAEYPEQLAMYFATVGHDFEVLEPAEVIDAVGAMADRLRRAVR
# Measurement Notes: fluorescence anisotropy; EMSA: 5 mM HEPES-KOH pH 7.0, 30 mM NaCl, 2.5% Ficoll 400K, 1% glycerol, 5 nM probe (10 nM in Fig. 2a legend), 37 °C 15 min; anisotropy: 5 mM HEPES-KOH pH 7, 30
# Measurement Parameters: protein: recombinant; tags: His6-TEV-Sumo N-terminal fusion; chain copies: 2; label: 5'-FAM on strand 1; fork 1:2, 12 bp duplex with 12-nt 5' tail (strand 1) and 12-nt 3' tail (strand 2)
Readout Label: Kd
Units required after the number.

Measured Kd of DNA fork mimic (dsDNA) DNA 1: CGTCAGTCCAGTATCCGACGACTG DNA 2: CAGTCGTCGGATTGACCTGACTGC : 898 nM
